# Test system: HIV-1 LAI
# measurement.description: microbe, parasite or virus in culture
# condition.label: Compound 1 + named drug, EC50 ratio 1:2.5 (Compound 1:comparator); 95% confidence interval in parentheses
Collected Combination Indices at % HIV Inhibition (Confidence Interval) 90% values appear next to each entry.

In the examples that follow, each entry is paired with its recorded Combination Indices at % HIV Inhibition (Confidence Interval) 90%.
Give the reported Combination Indices at % HIV Inhibition (Confidence Interval) 90% for this compound. `COC(=O)N[C@H](C(=O)N[C@@H](Cc1ccccc1)[C@@H](O)CN(Cc1ccc(-c2ccccn2)cc1)NC(=O)[C@@H](NC(=O)OC)C(C)(C)C)C(C)(C)C`
1.17 (0.38, 1.95)

Give the reported Combination Indices at % HIV Inhibition (Confidence Interval) 90% for this compound. `CC(C)c1nc(CN(C)C(=O)N[C@H](C(=O)N[C@@H](Cc2ccccc2)C[C@H](O)[C@H](Cc2ccccc2)NC(=O)OCc2cncs2)C(C)C)cs1`
0.73 (0.46, 1.00)

Give the reported Combination Indices at % HIV Inhibition (Confidence Interval) 90% for this compound. `O=C1Nc2ccc(Cl)cc2[C@@](C#CC2CC2)(C(F)(F)F)O1`
0.45 (0.06, 0.83)

Give the reported Combination Indices at % HIV Inhibition (Confidence Interval) 90% for this compound. `Cc1cn([C@H]2C[C@H](N=[N+]=[N-])[C@@H](CO)O2)c(=O)[nH]c1=O`
0.59 (0.29, 0.89)

Give the reported Combination Indices at % HIV Inhibition (Confidence Interval) 90% for this compound. `CON(Cc1ccc(F)cc1)C(=O)C=C(O)C(=O)O`
0.59 (0.34, 0.85)

Give the reported Combination Indices at % HIV Inhibition (Confidence Interval) 90% for this compound. `c1cc(CN2CCCNCCNCCCNCC2)ccc1CN1CCCNCCNCCCNCC1`
0.66 (0.29, 1.02)

Give the reported Combination Indices at % HIV Inhibition (Confidence Interval) 90% for this compound. `Cc1cn([C@H]2C=C[C@@H](CO)O2)c(=O)[nH]c1=O`
0.40 (0.23, 0.56)

Others:
Give the reported Combination Indices at % HIV Inhibition (Confidence Interval) 90% for this compound. `CC(C)CN(C[C@@H](O)[C@H](Cc1ccccc1)NC(=O)O[C@H]1CCOC1)S(=O)(=O)c1ccc(N)cc1`
0.58 (0.19, 0.97)
